These data points were gathered from the RNAGym collection of RNA variant scans (doi:10.7554/elife.80360).

B1: CPEB3 Ribozyme (parent)
chain: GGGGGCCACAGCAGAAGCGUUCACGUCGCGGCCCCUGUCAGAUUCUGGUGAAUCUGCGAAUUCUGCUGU

variants of: B1; test: self-cleavage, relative activity (ratio to wild type); higher = more cleavage; co-transcriptional
test-readout: self-cleavage

>>> measurement("A8G G31C")
0.0995
>>> measurement("U26C C27G")
0.195
>>> measurement("C6U G14C")
0.458
